# Assayed System: T1, active human C1s purified from human serum (CompTech, Tyler, TX, catalog number A104) (human, UniProt P09871 16-437; P09871 438-688)
# T1 construct: Serum-derived material, biotinylated for the ELISA; also called human active C1s; active C1s
# T1 sequence 1: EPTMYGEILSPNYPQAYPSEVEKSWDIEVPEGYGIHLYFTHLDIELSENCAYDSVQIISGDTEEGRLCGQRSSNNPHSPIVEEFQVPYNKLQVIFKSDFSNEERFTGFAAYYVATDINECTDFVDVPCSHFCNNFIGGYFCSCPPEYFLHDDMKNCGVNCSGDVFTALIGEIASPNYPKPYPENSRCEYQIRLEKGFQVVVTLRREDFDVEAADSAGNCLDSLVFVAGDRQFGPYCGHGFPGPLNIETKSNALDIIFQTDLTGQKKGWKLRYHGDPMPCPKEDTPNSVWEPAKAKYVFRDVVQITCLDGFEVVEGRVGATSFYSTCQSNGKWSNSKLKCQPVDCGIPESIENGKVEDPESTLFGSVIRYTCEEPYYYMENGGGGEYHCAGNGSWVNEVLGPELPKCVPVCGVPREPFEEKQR
# T1 sequence 2: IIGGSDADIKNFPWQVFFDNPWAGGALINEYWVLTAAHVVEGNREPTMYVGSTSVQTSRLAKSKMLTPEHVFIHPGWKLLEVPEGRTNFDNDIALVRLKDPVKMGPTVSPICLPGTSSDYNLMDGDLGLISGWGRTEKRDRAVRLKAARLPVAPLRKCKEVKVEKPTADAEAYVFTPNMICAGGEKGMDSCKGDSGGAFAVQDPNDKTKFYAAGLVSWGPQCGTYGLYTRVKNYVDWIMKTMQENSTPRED
# Assay Procedure: SPR, antibody captured via anti-human Fc, C1s in solution
Measurement Label: kon

What value of measured kon is listed for MAB22 (antibody, V domains shown, IgG) VH: EVQLVESGGGVVRPGGSLRLSCAASGFTFDDYGMSWVRQAPGKGLEWVSGINWEGGSTGYADSVKGRFTISRDNAKNSLYLQMNSLRAEDTALYYCARDEQLGGKYYYYYYMDVWGKGTTVTVSS VL: DIQMTQSPSSLSASVGDRVTITCRASQGIRNDLGWYQQKPGKAPKRLIYTASNLQSGVPSRFSGSGSGTEFTLTISSLQPEDFATYYCLQYRSHPLTFGGGTKVEIK ?
80400 M⁻¹ s⁻¹

Given the entry MAB1 (antibody, V domains shown, 191g-derived clone expressed as IgG in 293 cells) VH: QVQLVESGGGLVKPGGSLRLSCAASGFTFSDYYMSWIRQAPGKGLEWVSYISRSGSTKYYADSVKGRFTISRDNAKNSLYLQMNSLRAEDTAVYYCARDQEDYALDYWGQGTLVTVSS VL: DIQMTQSPSSLSASVGDRVTITCQASQDISNYLNWYQQKPGKAPKLLIYDASNLETGVPSRFSGSGSGTDFTFTISSLQPEDIATYYCEQYEDYPLTFGGGTKVEIK , report its measured kon.
268000 M⁻¹ s⁻¹

Return reported kon; argument: MAB4 (antibody, V domains shown, The IgG4 YTE form is entered separately as IgG4-MAB4) VH: QVQLVESGGGLVKPGGSLRLSCAASGFTFSDYYMSWIRQAPGKGLEWVSYISRSGSTKYYADSVKGRFTISRDNAKNSLYLQMNSLRAEDTAVYYCARDESQYALDYWGQGTLVTVSS VL: DIQMTQSPSSLSASVGDRVTITCQASQDISNYLNWYQQKPGKAPKLLIYDASNLETGVPSRFSGSGSGTDFTFTISSLQPEDIATYYCHQYEDYPLTFGGGTKVEIK
190000 M⁻¹ s⁻¹
